tested on: Saccharomyces cerevisiae; assay: protein stability index of tFT-peptide fusion (C-terminal peptide) (PSI (0-1 scale)); higher = more stable (slower turnover); conditions: genetic background: wild type; temperature: 30 C;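 further: PSI is a weighted mean of sequencing reads over stability bins, variants kept only with over 10 reads, mCherry proximal and sfGFP distal, peptide attached via GGGS linker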
Field: protein stability index. Provide a value for each of the sequences that follow.
Lab note: jot the number down without any unit.

Consider the sequence CMAWLSVLKTLF . State its measured protein stability index.
0.495

Note down protein stability index recorded for AVNLWSRFFDLP
0.686

Give the reported value of protein stability index for this record: GYRRELGVCSGD
0.586

Name the recorded protein stability index of the sequence listed here: SPFSPTAPPPPP
0.718

Give a short answer stating reported protein stability index for SPPAALLPLFLR .
0.676

Entry CTCLHSSGVRHT needs its protein stability index filled in; supply it.
0.692

Please supply the value of reported protein stability index for the item IFSTQMVRFSLL
0.362

Answer with the recorded protein stability index of ALHHPPLPHPRS only.
0.663

Answer with reported protein stability index of LLGVYVRSFGSK
0.698

Using the record for QMKRPSCKGTCD , state its measured protein stability index.
0.679

Output measured protein stability index for this item: DRRARTDEKKKK
0.646

Provide measured protein stability index value, entry: FPAYPLPPPAPN
0.697

Respond only with protein stability index recorded for DEVRDTSGGTWA
0.642

Given the sequence TDFAVTKDFTEI , write its reported protein stability index.
0.683

Supply recorded protein stability index for RPSPPPTPPGPH here.
0.656

State its protein stability index for this sequence: APSVSHAPSRLL
0.706

Tell me its protein stability index given HISACKFPARTA as the entry.
0.692

Give a short answer stating reported protein stability index for EMNKGKREKKGE .
0.684

Hello, please tell me recorded protein stability index for this one: SGFQIRVPVFMG
0.619

Give reported protein stability index value for HTYQAAFRSHAI
0.654

Provide protein stability index value for the following sequence: TTKKKKGKKKYH
0.681

Output measured protein stability index for this item: PAPAVPPQTTPM
0.669

Provide measured protein stability index value, entry: AIKCSDTLLTWV
0.719

Consider the sequence VRCWGRGSGVGD . State its measured protein stability index.
0.666

Read the entry VGGGASGVGRSG and write its reported protein stability index.
0.63

Identify measured protein stability index corresponding to PVPPSARHSSPP
0.66

Indicate the recorded protein stability index value for this sequence: PAPHPRLTPIFL
0.749

Retrieve protein stability index measured for PRQPSKSNASNR and print it.
0.582

Look up protein stability index of GTRRIDSKDICP and report it.
0.742

Note protein stability index for the sequence shown: WQIDVWDSNCVM
0.692

Using known records, supply protein stability index for WVGGVVMVPVLL
0.542

Please give measured protein stability index of the following entry: SPPPTSQHSGPP
0.657

Please supply the value of reported protein stability index for the item KNKFSTWDNEVN
0.718

Give the value of protein stability index reported for the following: PQRRPPASTRSD
0.682

Give me measured protein stability index, please, for this sequence: ARSRPSILSGPE
0.689

Report protein stability index, nothing else, for this sequence: IFSIRCFHSDFV
0.649

Dear colleague, please send me the reported protein stability index for SPSPPLPFSRPP when you can.
0.686

Provide protein stability index value for the following sequence: PVPLTPRCPSVT
0.6

Entry PLLPTPLTAPPP needs its protein stability index filled in; supply it.
0.385

Please look at this sequence and report its protein stability index: SRSKVVVHNSYW
0.724

Please supply the value of reported protein stability index for the item VTISLGGGGGMQ
0.684

Identify protein stability index associated with the sequence KLKACRIHEENR
0.676

Find the measured protein stability index of IPRRMFNIRKKR and report it.
0.666

Supply recorded protein stability index for FCSLLVLLFFGV here.
0.394

Give the measured protein stability index for YTPLLAHRGCCC
0.695

Retrieve protein stability index measured for GVSAKVRRETVR and print it.
0.725

Answer with reported protein stability index of PPVLRTPPAPLI
0.681

Supply recorded protein stability index for VPPPALPPCPAF here.
0.723

Hello, please tell me recorded protein stability index for this one: LCSLPIVCCFFL
0.489

Find the measured protein stability index of SPPSPLSLPLPS and report it.
0.707

Report protein stability index for SPARPPFPPPPL
0.72

Data origin: the supplement of paper PMC10724198
